Biological target: PPARG/RXRA LBD heterodimer (Homo sapiens)
Construct: His-TEV-Q203-Y477; Uniprot ID P37231-2; made in house; host or cells: E. coli
Sequence (P37231 203-477 isoform P37231-2): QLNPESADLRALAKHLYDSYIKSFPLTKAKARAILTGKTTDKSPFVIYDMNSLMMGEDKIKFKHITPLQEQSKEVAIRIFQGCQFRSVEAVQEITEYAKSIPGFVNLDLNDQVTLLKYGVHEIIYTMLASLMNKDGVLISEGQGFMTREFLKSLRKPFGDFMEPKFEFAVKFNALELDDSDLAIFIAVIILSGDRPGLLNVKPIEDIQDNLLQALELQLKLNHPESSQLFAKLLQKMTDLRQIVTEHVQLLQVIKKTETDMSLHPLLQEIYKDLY
Sequence (P19793 228-462 partner limits assumed): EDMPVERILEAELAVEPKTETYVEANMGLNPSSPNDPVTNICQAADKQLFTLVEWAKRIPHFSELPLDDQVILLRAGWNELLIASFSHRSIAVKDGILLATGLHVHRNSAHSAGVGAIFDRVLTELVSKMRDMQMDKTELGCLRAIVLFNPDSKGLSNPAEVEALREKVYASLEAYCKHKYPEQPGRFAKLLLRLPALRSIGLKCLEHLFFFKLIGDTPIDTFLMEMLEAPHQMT
Test: PPARγ-MED1 blockade assay (TR-FRET, biotinylated MED1 LxxLL peptide)
Format: biochemical
Conditions: WT PPARG LBD/WT RXRA LBD, 80 nM Rosiglitazone, 3 hours
Protocol: PPARγ-MED1 Blockade Assay: Compound potency (IC50) and maximal extent of MED1 repulsion to PPARG were assessed a TR-FRET binding assay measuring association of a biotinylated MED1 LxxLL peptide (Biotin-[…]-amide) to PPARG/RXRA LBD heterodimer. […]
pEC50: −log10 of the molar value.

{"columns": ["structure as smiles", "pEC50"],
 "data": [
  ["N#Cc1ccc(Cl)c(-c2cc(=O)c3c(F)c(-c4ccc(CC(=O)O)cc4)c(F)cc3[nH]2)c1", "6.00 to 7.00"],
  ["CN(C)C(=O)[C@H]1CCN(c2c(F)cc3[nH]c(-c4cc(C#N)ccc4Cl)cc(=O)c3c2F)C1", "5.00 to 6.00"],
  ["N#Cc1ccc(Cl)c(-c2cc(=O)c3c(F)c(-n4cccn4)c(F)cc3[nH]2)c1", "5.00 to 6.00"],
  ["CN1CC2(C1)CN(c1c(F)cc3[nH]c(-c4cc(C#N)ccc4Cl)cc(=O)c3c1F)C2", "< 5.00"],
  ["CN(C)C(=O)c1c(F)ccc(-c2c(F)cc3[nH]c(-c4cc(C#N)ccc4Cl)cc(=O)c3c2F)c1F", "6.00 to 7.00"],
  ["COc1cc(F)cc2[nH]c(-c3cc(C#N)ccc3Cl)cc(=O)c12", "5.00 to 6.00"],
  ["CN(C)C(=O)c1cc(-c2c(F)cc3[nH]c(-c4cc(C#N)ccc4Cl)cc(=O)c3c2F)cc(F)c1F", "6.00 to 7.00"],
  ["N#Cc1ccc(Cl)c(-c2cc(=O)c3c(F)c(-c4ccncc4F)c(F)cc3[nH]2)c1", "6.00 to 7.00"],
  ["Cc1c(F)c(F)cc2[nH]c(-c3cc(C#N)ccc3Cl)cc(=O)c12", "6.00 to 7.00"],
  ["N#Cc1cccc(-c2c(F)cc3[nH]c(-c4cc(C#N)ccc4Cl)cc(=O)c3c2F)c1", "6.00 to 7.00"],
  ["N#Cc1ccc(Br)c(-c2cc(=O)c3c(F)cc(F)cc3[nH]2)c1", "7.00 to 8.00"]
]}
